SYSTEM TESTED: T1, mouse EphB4 AP (mouse, UniProt P54761 16-539)
T1 chain: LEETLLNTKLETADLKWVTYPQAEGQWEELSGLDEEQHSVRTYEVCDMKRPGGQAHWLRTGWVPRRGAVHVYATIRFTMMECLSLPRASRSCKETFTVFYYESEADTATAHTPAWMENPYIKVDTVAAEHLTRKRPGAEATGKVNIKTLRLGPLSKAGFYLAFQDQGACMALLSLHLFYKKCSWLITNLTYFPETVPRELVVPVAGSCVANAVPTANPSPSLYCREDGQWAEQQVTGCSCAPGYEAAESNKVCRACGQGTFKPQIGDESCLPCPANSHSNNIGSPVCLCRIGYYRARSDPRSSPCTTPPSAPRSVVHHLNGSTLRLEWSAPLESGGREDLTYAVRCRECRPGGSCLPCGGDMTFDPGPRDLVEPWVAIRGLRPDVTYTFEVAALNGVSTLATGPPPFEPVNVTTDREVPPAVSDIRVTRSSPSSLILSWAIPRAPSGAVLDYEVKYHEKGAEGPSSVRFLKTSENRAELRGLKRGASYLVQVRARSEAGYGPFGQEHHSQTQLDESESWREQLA
TEST: ELISA
Square brackets hold non-standard residues; d marks the D form. Ends that are not written are not given here. * marks the point of attachment. Biotin = O=C1N[C@H]2[C@H](CS[C@H]2CCCCC(=O)*)N1; Ahx = NCCCCCC(=O)O
READOUT: Kd (nM)

(1) TNYLFSPNGPIARAW[Ahx]K(Biotin) [biotinylated TNYL-RAW peptide]
(2) TNYLFSPNGPIARAWGSGSK (Fc fusion) [TNYL-RAW fused with human Fc (TNYL-RAW-Fc)]
Smaller Kd value, 1 vs 2 ? Your choice should be expressed through its label.
2
(2: 4.7 nM, 1: 11 nM)
